FYI, the data here is from ChEMBL document CHEMBL4689842.

Tested on: U2OS
Experiment: Multiplex assay against U2OS
Assay type: toxicity, cell-based
Details: human, 12 h, 1 µM, compound concentration 1 uM, replicate 2
Field 'label' (enum: label 1 / label 0). Set to label 1 when Population Fragmented Nuclei (%) is strictly under 8%; else label 0.

{"compound": "CN(C)C/C=C/C(=O)Nc1cc2c(Nc3ccc(F)c(Cl)c3)ncnc2cc1O[C@H]1CCOC1.O=C(O)/C=C\\C(=O)O.O=C(O)/C=C\\C(=O)O [AFATINIB DIMALEATE]", "label": "label 1"}
{"compound": "CS(=O)(=O)N1CCN(Cc2cc3nc(-c4cccc5[nH]ncc45)nc(N4CCOCC4)c3s2)CC1", "label": "label 0"}
{"compound": "Cc1cc2c(cc1N1C(=O)c3cccc4c(CCCO)ccc(c34)C1=O)n(C)c(=O)n2C", "label": "label 1"}

Answer whether the compound "Cl.Cl.NC1(c2ccc(-c3nc4ccn5c(=O)[nH]nc5c4cc3-c3ccccc3)cc2)CCC1" has Population Fragmented Nuclei (%) strictly less than 8%
label 0

Strictly below 8%: is that where Population Fragmented Nuclei (%) of "CC(=O)O[C@H]1C(=O)[C@@]2(C)[C@H]([C@H](OC(=O)c3ccccc3)[C@]3(O)C[C@H](OC(=O)[C@H](O)[C@@H](NC(=O)c4ccccc4)c4ccccc4)C(C)=C1C3(C)C)[C@]1(OC(C)=O)CO[C@@H]1C[C@@H]2O" sits?
label 1

Decide: Population Fragmented Nuclei (%) of "CC(C)(C)c1cnc(CSc2cnc(NC(=O)C3CCNCC3)s2)o1" strictly below 8%?
label 0

Answer whether the compound "CCCn1c(=O)c2[nH]c(C34CC5CC(CC3C5)C4)nc2n(CCC)c1=O" has Population Fragmented Nuclei (%) strictly less than 8%
label 1

Please check: Population Fragmented Nuclei (%) for Cc1nc(Cc2cccc(C(F)(F)F)c2)sc1-c1ccc(C(N)=O)nc1 [TP-024n] , strictly under 8% or not?
label 1

Lab note: confirm whether the reported Population Fragmented Nuclei (%) for this compound is below 8%, equality not counting. compound: "Nc1nc2c(c(N3CCNCC3)n1)CCC1=C2[C@@H]2CCCC[C@@H]2O1"
label 0

Is Population Fragmented Nuclei (%) of "CC(C)N1CCC(C)(C)c2cc(C#Cc3ccc(C(=O)O)cc3)ccc21" strictly below 8%?
label 0

Just wondering, is Population Fragmented Nuclei (%) of "CN(C)CCOc1ccc(-c2nc(-c3ccncc3)c(-c3ccc4c(c3)CC/C4=N\O)[nH]2)cc1" below 8%?
label 0
